Where do these numbers come from? They come from paper PMC11079868.

Study Target: hCA I (Homo sapiens, UniProt P00915)
Construct: from tissue; host or cells: fresh human erythrocytes
Sequence (P00915 whole entry): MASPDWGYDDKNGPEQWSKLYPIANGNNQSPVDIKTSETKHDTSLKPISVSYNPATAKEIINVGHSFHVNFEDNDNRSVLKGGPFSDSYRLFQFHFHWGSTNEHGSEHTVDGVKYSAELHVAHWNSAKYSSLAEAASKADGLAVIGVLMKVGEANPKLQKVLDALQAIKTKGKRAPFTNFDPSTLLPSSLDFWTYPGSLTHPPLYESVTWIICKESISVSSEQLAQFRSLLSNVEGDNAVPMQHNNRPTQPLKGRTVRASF
Assay Overview: biochemical
Type: biochemical
Applied Conditions: mean from at least three determinations
pIC50: −log10 of the molar value.

>  <Molecule>
CN(C)c1ccc(C(=O)Oc2ccc3ccccc3c2C=O)cc1 [compound 6]

>  <pIC50>
7.35

$$$$
>  <Molecule>
COc1cc(C=NNC(=O)c2cccnc2)ccc1OC(=O)c1ccc(N(C)C)cc1 [compound 11]

>  <pIC50>
7.49

$$$$
>  <Molecule>
COc1ccc(C=O)cc1OC(=O)c1ccc(N(C)C)cc1 [compound 4]

>  <pIC50>
7.42

$$$$
>  <Molecule>
COc1cccc(C=O)c1OC(=O)c1ccc(N(C)C)cc1 [compound 3]

>  <pIC50>
7.40

$$$$
>  <Molecule>
CN(C)c1ccc(C(=O)Oc2ccccc2C=O)cc1 [compound 1, 2-Formylphenyl 4-(Dimethylamino)benzoate]

>  <pIC50>
7.56

$$$$
>  <Molecule>
COc1cccc(C=NNC(=O)c2cccnc2)c1OC(=O)c1ccc(N(C)C)cc1 [compound 9]

>  <pIC50>
7.45

$$$$
>  <Molecule>
COc1cc(C=O)ccc1OC(=O)c1ccc(N(C)C)cc1 [compound 5]

>  <pIC50>
7.41

$$$$
>  <Molecule>
CN(C)c1ccc(C(=O)Oc2ccc(C=NNC(=O)c3cccnc3)cc2)cc1 [compound 8]

>  <pIC50>
7.67

$$$$
>  <Molecule>
CN(C)c1ccc(C(=O)Oc2ccccc2C=NNC(=O)c2cccnc2)cc1 [compound 7]

>  <pIC50>
7.54

$$$$
>  <Molecule>
CN(C)c1ccc(C(=O)Oc2ccc(C=O)cc2)cc1 [compound 2, 4-Formylphenyl 4-(Dimethylamino)benzoate]

>  <pIC50>
7.59

$$$$
>  <Molecule>
COc1ccc(C=NNC(=O)c2cccnc2)cc1OC(=O)c1ccc(N(C)C)cc1 [compound 10]

>  <pIC50>
7.49

$$$$
>  <Molecule>
CN(C)c1ccc(C(=O)Oc2ccc3ccccc3c2C=NNC(=O)c2cccnc2)cc1 [compound 12]

>  <pIC50>
7.37

$$$$

----------
Study Target: BChE (Equus caballus, UniProt P81908)
Construct: BChE from equine serum (C4290: Sigma-Aldrich); purchased Sigma-Aldrich C4290; host or cells: equine serum
Sequence (P81908 whole entry): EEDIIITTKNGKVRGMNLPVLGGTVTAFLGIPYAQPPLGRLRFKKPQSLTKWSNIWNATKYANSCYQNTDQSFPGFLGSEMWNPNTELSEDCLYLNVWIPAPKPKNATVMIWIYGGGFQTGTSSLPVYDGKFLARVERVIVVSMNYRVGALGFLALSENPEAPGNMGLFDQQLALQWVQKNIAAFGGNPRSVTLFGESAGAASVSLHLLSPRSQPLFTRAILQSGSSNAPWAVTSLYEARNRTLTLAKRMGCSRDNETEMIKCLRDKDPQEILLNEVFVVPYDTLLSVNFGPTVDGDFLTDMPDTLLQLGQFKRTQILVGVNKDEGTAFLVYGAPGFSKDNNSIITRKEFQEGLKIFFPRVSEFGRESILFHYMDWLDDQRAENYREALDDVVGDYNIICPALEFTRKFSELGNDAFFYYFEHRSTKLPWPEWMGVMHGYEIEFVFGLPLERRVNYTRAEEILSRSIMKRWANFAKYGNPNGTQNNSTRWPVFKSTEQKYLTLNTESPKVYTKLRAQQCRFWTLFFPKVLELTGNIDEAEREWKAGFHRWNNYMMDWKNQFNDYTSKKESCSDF
Assay Overview: BChE activity assay (Ellman method)
Format: biochemical
Applied Conditions: mean from at least three determinations; read-out: IC50 BChE
pIC50: −log10 of the molar value.

>  <Compound>
CN(C)c1ccc(C(=O)Oc2ccccc2C=NNC(=O)c2cccnc2)cc1

>  <pIC50>
7.34

$$$$
>  <Compound>
CN(C)c1ccc(C(=O)Oc2ccc(C=NNC(=O)c3cccnc3)cc2)cc1

>  <pIC50>
7.36

$$$$
>  <Compound>
CN(C)c1ccc(C(=O)Oc2ccc3ccccc3c2C=NNC(=O)c2cccnc2)cc1

>  <pIC50>
7.73

$$$$
>  <Compound>
CN(C)c1ccc(C(=O)Oc2ccc3ccccc3c2C=O)cc1

>  <pIC50>
7.60

$$$$
>  <Compound>
COc1ccc(C=O)cc1OC(=O)c1ccc(N(C)C)cc1

>  <pIC50>
7.27

$$$$
>  <Compound>
CN(C)c1ccc(C(=O)Oc2ccc(C=O)cc2)cc1 [compound 2, 4-Formylphenyl 4-(Dimethylamino)benzoate]

>  <pIC50>
7.38

$$$$
>  <Compound>
CN(C)c1ccc(C(=O)Oc2ccccc2C=O)cc1 [compound 1, 2-Formylphenyl 4-(Dimethylamino)benzoate]

>  <pIC50>
7.36

$$$$
>  <Compound>
COc1cc(C=O)ccc1OC(=O)c1ccc(N(C)C)cc1

>  <pIC50>
7.26

$$$$
>  <Compound>
COc1cccc(C=O)c1OC(=O)c1ccc(N(C)C)cc1

>  <pIC50>
7.29

$$$$
>  <Compound>
COc1cccc(C=NNC(=O)c2cccnc2)c1OC(=O)c1ccc(N(C)C)cc1

>  <pIC50>
7.40

$$$$
>  <Compound>
COc1cc(C=NNC(=O)c2cccnc2)ccc1OC(=O)c1ccc(N(C)C)cc1

>  <pIC50>
7.54

$$$$
>  <Compound>
COc1ccc(C=NNC(=O)c2cccnc2)cc1OC(=O)c1ccc(N(C)C)cc1

>  <pIC50>
7.53

$$$$
